Assay: Viability qHTS for inhibitors of the SERCaMP assay screened against the NCATS CANVASS Library (AID 1347400); note: nearly all actives have a fitted effect of over 70% in size
Details: SH-SY5Y SERCaMP cells viability, CellTiter-Glo, 48 h; series mostly up to 92.2 µM
Text: Natural products and their derivatives continue to be wellsprings of nascent therapeutic potential. […] To address this issue, the Canvass library of natural products was assembled (https://tripod.nih.gov/canvass), in collaboration with academic and industry researchers, for quantitative high-throughput screening (qHTS) across a diverse set of cell-based and biochemical assays. […]
Inconclusive results are not listed. The source made the active and inactive calls. Calls come from the whole dose curve; as a rule, active = well fitted cell-killing curve with a large enough effect; inconclusive = small, poorly fitted or top-dose-only effect; inactive = flat fitted curve, though single readings scatter.
Labels: label 1 (active), label 0 (inactive)

# molecule, qualitative label
records = [
    ("C/C1=C/[C@@H](C)[C@H](O)C/C=C/CC/C=C/C(=O)O[C@@H]1[C@H](C)C(=O)/C=C/CC1CC(=O)NC(=O)C1", "label 1"),
    ("CC1(C)CC[C@]2(C(=O)O)CC[C@]3(C)C(=CC[C@@H]4[C@@]5(C)C[C@@H](O)[C@H](O)C(C)(C)[C@@H]5CC[C@]43C)[C@@H]2C1", "label 0"),
    ("O=c1cc(-c2ccc(O)cc2)oc2c([C@@H]3OC(CO)[C@H](O)[C@@H](O)[C@H]3O)c(O)cc(O)c12 (some centres undefined)", "label 0"),
    ("C/C=C/c1cc(OC)c2c(c1)[C@@H](C)[C@H](c1ccc(O)c(OC)c1)O2", "label 0"),
    ("O=C(O)Cc1c[nH]c2ccccc12", "label 0"),
    ("C[C@@]12C[C@@H](C[C@H]3C(=O)O[C@@H](c4ccoc4)[C@H](OC(=O)c4ccccc4)[C@@H]31)OC2=O", "label 0"),
    ("O=C(O)CC1OC(=O)c2c(O)cccc21 (centres undefined)", "label 0"),
    ("CS/C=C/C(N)=O", "label 0"),
    ("CCC1=C2CCCN3C(=O)O[C@H]([C@H]1OC(C)=O)[C@H]23", "label 0"),
]
